biological target: Beta-adrenergic receptor kinase 1 (Homo sapiens) (UniProt P25098); assay: compounds blocking aptamer binding on GRK2 – biochemical, human GRK2, bead flow cytometry, HTS, primary screen (AID 488847); conditions: FAM-aptamer displacement from GRK2, at 10 µM, stronger effect = higher value;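 further: median bead fluorescence of bound FAM aptamer so fluorescent compounds give negative values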
Sequence (P25098 whole entry, looked up): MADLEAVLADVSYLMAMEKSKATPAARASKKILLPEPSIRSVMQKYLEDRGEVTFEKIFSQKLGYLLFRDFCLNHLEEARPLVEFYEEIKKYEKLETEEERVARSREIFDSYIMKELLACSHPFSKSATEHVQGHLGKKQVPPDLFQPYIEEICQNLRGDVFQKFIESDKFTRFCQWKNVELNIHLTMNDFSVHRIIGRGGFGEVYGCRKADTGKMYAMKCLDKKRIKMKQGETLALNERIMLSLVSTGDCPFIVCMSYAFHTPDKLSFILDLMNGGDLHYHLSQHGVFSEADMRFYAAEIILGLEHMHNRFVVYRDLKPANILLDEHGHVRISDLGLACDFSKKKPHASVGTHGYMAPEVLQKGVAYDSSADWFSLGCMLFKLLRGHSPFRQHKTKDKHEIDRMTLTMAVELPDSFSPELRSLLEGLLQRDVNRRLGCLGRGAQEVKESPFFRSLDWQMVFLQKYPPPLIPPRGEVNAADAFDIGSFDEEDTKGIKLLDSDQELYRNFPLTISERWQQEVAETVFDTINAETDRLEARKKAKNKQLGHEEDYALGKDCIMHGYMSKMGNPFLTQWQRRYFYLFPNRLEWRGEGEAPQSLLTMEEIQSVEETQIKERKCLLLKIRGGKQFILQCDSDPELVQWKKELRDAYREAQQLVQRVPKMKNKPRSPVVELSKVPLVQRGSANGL
About 1,900 (0.58%) of roughly 330,000 compounds were called active. For the sample, actives were picked, then their nearest neighbours and some compounds at random.
measure: inhibition of aptamer binding (%)
Respond with the bare value in %.

The following compounds have reported results that may help.
Cc1c(C(=O)O)cccc1-n1c(C)cc(/C=C2\C(=O)NC(=O)N(c3ccc4c(c3)OCO4)C2=O)c1C    75
O=C1NC(=O)N(Cc2ccco2)C(=O)/C1=C\c1ccc(-c2ccc(F)cc2)o1    15
COc1ccc(Br)cc1CNCCc1cccc(Cl)c1    0
Cc1ccc(-n2c(C)cc(/C=C3\C(=O)NC(=O)N(C)C3=O)c2C)cc1C    3
CN(C)CC1CCCCC1OC(=O)c1ccc(Cl)c(Cl)c1 (stereo not drawn)    0
Cc1cc(C=C2C(=O)NC(=O)NC2=O)c(C)n1-c1ccncc1    2
O=C1NC(=O)C(C/C=C/c2ccccc2)C(=O)N1    1

Then this compound:
[ask] Identify the reported inhibition of aptamer binding for the following entry. "COc1ccc(N2C(=O)/C(=C/c3ccco3)C(=O)NC2=S)cc1"
[reply] 96

meta.source: PubChem BioAssay AID488847
